B1: TPR t1 (parent)
chain: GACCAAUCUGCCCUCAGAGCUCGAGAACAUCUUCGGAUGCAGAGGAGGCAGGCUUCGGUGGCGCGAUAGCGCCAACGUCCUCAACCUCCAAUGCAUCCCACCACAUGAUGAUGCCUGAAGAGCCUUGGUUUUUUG

Variants of: B1
Assay: polymerase ribozyme fitness, log enrichment relative to wild type (log ratio); higher = more active; in vitro selection for triplet polymerase activity
Parameter polymerase ribozyme fitness (log ratio): see the listing below.
propertyMeasured: polymerase ribozyme fitness (log ratio)

>>> experimentalresult("C70A C124A")
-0.104
>>> experimentalresult("C12A G42U C88G C114U")
-4.43
>>> experimentalresult("U67A G69U")
-5.08
>>> experimentalresult("C31U G127C")
-3.6
>>> experimentalresult("A50U G51C C73U")
-3.52
>>> experimentalresult("G10A A29U C72A C88G U116G")
-3.97
>>> experimentalresult("G39U A95U")
-1.27
>>> experimentalresult("A37U G47U U55G C114U")
-3.49
>>> experimentalresult("C73G C98A")
-6.22
>>> experimentalresult("C22U G120U")
-3.75
>>> experimentalresult("U7G A91U")
-1.77
